PROCEDURE TEXT: p53 small molecule agonists, cell-based qHTS assay with rat liver microsomes: qHTS cell viability counter screen (AID 1963580); note: nearly all actives have a fitted effect of over 45% in size
RUN PARAMETERS: p53RE-bla HCT-116 + rat microsomes, ATP viability, 16 h; series mostly up to 66 µM
Inconclusive results are not listed. Activity calls are given as the source filed them. Calls come from the whole dose curve.
Outcome codes: 1 (yes) (active), 0 (no) (inactive)

> print(dat)
                                    compound  classification
 1  CC(C)Oc1cc(-n2nc(C(C)(C)C)oc2=O)c(Cl)cc1Cl          0 (no)
 2   Cc1ccc(-c2nc3ccc(C)cn3c2CC(=O)N(C)C)cc1          0 (no)
 3                                 Nc1ccncc1          0 (no)
 4                                  CN(C)CCO          0 (no)
 5                                [O-][Cl+]O          0 (no)
 6                [CH3][Sn]([CH3])([Cl])[Cl]          0 (no)
 7          O=[N+]([O-])c1cc(Cl)c(Cl)c(Cl)c1          0 (no)
 8                          O=C(O)COc1ccccc1          0 (no)
 9                    CNC(=O)O/N=C/C(C)(C)SC          0 (no)
10                               ClCC(Cl)CCl          0 (no)
11       O=[N+]([O-])c1cc([As](=O)(O)O)ccc1O          0 (no)
12  COc1nc(C)nc(NC(=O)NS(=O)(=O)c2ccccc2Cl)n1          0 (no)
13                                 ClCCOCCCl          0 (no)
14                      Oc1ccc(-c2ccccc2)cc1          0 (no)
15       CN(C)c1ccc(C(=O)c2ccc(N(C)C)cc2)cc1          0 (no)
16    CCC(C)c1ccc(O)cc1 (stereo unspecified)          0 (no)
17  C=CCOC(Cn1ccnc1)c1ccc(Cl)cc1Cl (stereo unspecified)          0 (no)
18        Clc1ccc(C(c2ccc(Cl)cc2)C(Cl)Cl)cc1          0 (no)
19             CC(O)CCO (stereo unspecified)          0 (no)
20  COc1c(C(C)(C)C)cc([N+](=O)[O-])c(C)c1[N+](=O)[O-]          0 (no)
21                       CCCCCCn1cc[n+](C)c1          0 (no)
22                                   CCCCCBr          0 (no)
23          COCC(=O)N(c1c(C)cccc1C)N1CCOC1=O          0 (no)
24                            Nc1ccc(Cl)cc1N          0 (no)
25                      O=C(O)CC[N+](=O)[O-]          0 (no)
26                         CCCCn1cc[n+](C)c1          0 (no)
27                               COc1ccccc1N          0 (no)
28                            NCCc1ccc(O)cc1          0 (no)
29                   Clc1cccc(C(Cl)(Cl)Cl)n1          0 (no)
30                      COC(=O)c1ccc(CBr)cc1          0 (no)
31  O=C1C2(Cl)C3(Cl)C4(Cl)C(Cl)(Cl)C5(Cl)C3(Cl)C1(Cl)C5(Cl)C24Cl (stereo unspecified)         1 (yes)

###

PROCEDURE TEXT: p53 small molecule agonists, cell-based qHTS assay: qHTS cell viability counter screen (AID 1963581); note: nearly all actives have a fitted effect of over 45% in size
RUN PARAMETERS: p53RE-bla HCT-116 viability, ATP luminescence, 16 h; series mostly up to 66 µM
Records with an inconclusive call do not appear. Active and inactive are the calls of the source. The call rests on the fitted dose curve.
Outcome codes: TRUE = active, FALSE = inactive

> print(dat)
                             molecule.smiles  classification
 1                   CCCCCCCCCCCCCCCCCC(=O)O           FALSE
 2        Cn1c(-c2ccccc2)cc(-c2ccccc2)[n+]1C           FALSE
 3                           Nc1ccccc1C(=O)O           FALSE
 4                     CCC1(CC)C(=O)C=CNC1=O           FALSE
 5                       COC(=O)C(Cl)C(=O)OC           FALSE
 6                             Cc1ccc(N)cc1N           FALSE
 7                                 CCC/C=N/O           FALSE
 8                         [O-][Cl+2]([O-])O           FALSE
 9            N#Cc1c(Cl)c(Cl)c(Cl)c(C#N)c1Cl            TRUE
10               O=c1[nH]c(=O)[nH]c(=O)[nH]1           FALSE
11  COP(=S)(OC)Oc1ccc(Sc2ccc(OP(=S)(OC)OC)cc2)cc1           FALSE
12                              ClCCN1CCOCC1           FALSE
13                                    C=CC=O           FALSE
14              CCNc1nc(Cl)nc(NC(C)(C)C#N)n1           FALSE
15                                     S=C=S           FALSE
16                   CC(C)(C)OOC(=O)c1ccccc1           FALSE

###

PROCEDURE TEXT: Nuclear factor erythroid 2-related factor 2/antioxidant responsive element (Nrf2/ARE) small molecule agonists: qHTS cell viability counter screen in human keratinocytes (AID 1919968); note: nearly all actives have a fitted effect of over 55% in size
RUN PARAMETERS: KeratinoSens HaCaT ARE cells viability, CellTiter-Fluor, 24 h; series mostly up to 92.4 µM
Inconclusive results are not listed. Active and inactive are the calls of the source. Calls follow the shape of the dose curve; as a rule, active = well fitted cell-killing curve with a large enough effect in the repeat runs; inconclusive = weak or mixed curves, or effect the other way; inactive = flat fitted curve, though single readings scatter.
Outcome codes: y = active, n = inactive

> print(dat)
                             molecule.smiles  classification
 1                                 OCCSCSCCO               n
 2      COP(=S)(OC)Oc1ccc(S(=O)(=O)N(C)C)cc1               n
 3            COP(=S)(OC)Oc1cc(Cl)c(Cl)cc1Cl               n
 4                CCN(CC)C(=O)SCc1ccc(Cl)cc1               n
 5                   Clc1ccc(C(Cl)(Cl)Cl)cc1               n
 6                                    CN=C=O               n
 7                            NCCOS(=O)(=O)O               n
 8                                Cl/C=C\CCl               n
 9  Cc1ccc(OP(=O)(Oc2ccc(C)cc2)Oc2ccc(C)cc2)cc1               n
10  CC(=O)[C@H]1CC[C@H]2[C@@H]3CC[C@H]4C[C@](C)(O)CC[C@]4(C)[C@H]3CC[C@]12C               n
11                       C=CCc1ccc2c(c1)OCO2               n
12               Nc1ccc(-c2ccc(N)c(N)c2)cc1N               n
13                                     OCCCl               n
14                  Nc1ccc([N+](=O)[O-])cc1N               y
15                              ClCCN1CCOCC1               n
